Numbers sourced from paper PMC6917776.

- assay procedure: CelltiterGlo viability cell assay
- Type: cell-based
- measurement context: human, RPMI-8226 multiple myeloma cells, 8226, 6 day, 3 uM; read-out: viability Replicate 1

| smiles entry | viability at 6 day, 3 µM [%] |
| --- | --- |
| COc1cc(OC)cc(-c2noc(N3CCN(C)C4(CCN(c5ccnc(C)c5)CC4)C3)n2)c1 | 89.2 |

* * *

- assay procedure: CelltiterGlo viability cell assay
- Format: cell-based
- measurement context: human, CAL851 breast cancer cells, CAL851, 6 day, 1 uM; read-out: viability Replicate 1

| smiles entry | viability at 6 day, 1 µM |
| --- | --- |
| COc1cc(OC)cc(-c2noc(N3CCN(C)C4(CCN(c5ccnc(C)c5)CC4)C3)n2)c1 | 109% |

* * *

- target or test system: Biotinylated PRDM9 (amino acids 195–415) (Homo sapiens)
- Sequence (Q9NQV7 195-415): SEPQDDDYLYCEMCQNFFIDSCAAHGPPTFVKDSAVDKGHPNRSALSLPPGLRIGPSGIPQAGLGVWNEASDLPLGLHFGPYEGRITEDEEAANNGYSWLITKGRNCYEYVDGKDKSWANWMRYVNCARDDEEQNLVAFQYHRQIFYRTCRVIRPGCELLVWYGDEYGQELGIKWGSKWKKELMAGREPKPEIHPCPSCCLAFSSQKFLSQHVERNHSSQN
pKd: −log10 of the molar value.

| smiles entry | pKd |
| --- | --- |
| COc1cc(OC)cc(-c2noc(N3CCN(C)C4(CCN(c5ccnc(C)c5)CC4)C3)n2)c1 | 7.06 |

* * *

- assay procedure: CelltiterGlo viability cell assay
- Type: cell-based
- measurement context: human, HCC1143 cells, HCC1143, 3 day, 0.1 uM; read-out: viability Average
endpoint: viability at 3 day, 0.1 µM (%)

| smiles entry | numeric value |
| --- | --- |
| COc1cc(OC)cc(-c2noc(N3CCN(C)C4(CCN(c5ccnc(C)c5)CC4)C3)n2)c1 | 93.6 |

* * *

- assay procedure: CelltiterGlo viability cell assay
- Format: cell-based
- measurement context: human, RPMI-8226 multiple myeloma cells, 8226, 6 day, 30 uM; read-out: viability Replicate 1

| compound | unit descriptor | viability at 6 day, 30 µM |
| --- | --- | --- |
| COc1cc(OC)cc(-c2noc(N3CCN(C)C4(CCN(c5ccnc(C)c5)CC4)C3)n2)c1 [MRK-740] | % | 82 |

* * *

- assay procedure: CelltiterGlo viability cell assay
- Assay type: cell-based
- measurement context: human, HCC1143 breast cancer cells, HCC1143, 6 day, 0.03 uM; read-out: viability Replicate 1
endpoint: viability at 6 day, 0.03 µM (%)

| molecule | numeric value |
| --- | --- |
| COc1cc(OC)cc(-c2noc(N3CCN(C)C4(CCN(c5ccnc(C)c5)CC4)C3)n2)c1 [MRK-740] | 96.8 |

* * *

- assay procedure: CelltiterGlo viability cell assay
- Format: cell-based
- measurement context: human, SKMM2 multiple myeloma cells, SKMM2, 6 day, 30 uM; read-out: viability Replicate 3
endpoint: viability at 6 day, 30 µM

| smiles entry | result |
| --- | --- |
| COc1cc(OC)cc(-c2noc(N3CCN(C)C4(CCN(c5ccnc(C)c5)CC4)C3)n2)c1 | 77.2% |

* * *

- assay procedure: CelltiterGlo viability cell assay
- Format: cell-based
- measurement context: human, SKMM2 multiple myeloma cells, SKMM2, 3 day, 0.1 uM; read-out: viability Average
endpoint: viability at 3 day, 0.1 µM (%)

| smiles entry | endpoint | numeric value |
| --- | --- | --- |
| COc1cc(OC)cc(-c2noc(N3CCN(C)C4(CCN(c5ccnc(C)c5)CC4)C3)n2)c1 | viability at 3 day, 0.1 µM | 103 |

* * *

- assay procedure: CelltiterGlo viability cell assay
- Format: cell-based
- measurement context: human, CAL851 breast cancer cells, CAL851, 6 day, 0.03 uM; read-out: viability Replicate 3
endpoint: viability at 6 day, 0.03 µM (%)

| compound | endpoint | numeric value |
| --- | --- | --- |
| COc1cc(OC)cc(-c2noc(N3CCN(C)C4(CCN(c5ccnc(C)c5)CC4)C3)n2)c1 [MRK-740] | viability at 6 day, 0.03 µM | 126 |

* * *

- assay procedure: CelltiterGlo viability cell assay
- Format: cell-based
- measurement context: human, SKMM2 multiple myeloma cells, SKMM2, 6 day, 1 uM; read-out: viability Replicate 1
endpoint: viability at 6 day, 1 µM (%)

| compound | numeric value |
| --- | --- |
| COc1cc(OC)cc(-c2noc(N3CCN(C)C4(CCN(c5ccnc(C)c5)CC4)C3)n2)c1 [MRK-740] | 88 |

* * *

- assay procedure: CelltiterGlo viability cell assay
- Format: cell-based
- measurement context: human, RPMI-8226 multiple myeloma cells, 8226, 3 day, 0.1 uM; read-out: viability Replicate 2

| compound | viability at 3 day, 0.1 µM / % |
| --- | --- |
| COc1cc(OC)cc(-c2noc(N3CCN(C)C4(CCN(c5ccnc(C)c5)CC4)C3)n2)c1 [MRK-740] | 101 |

* * *

- assay procedure: CelltiterGlo viability cell assay
- Assay type: cell-based
- measurement context: human, HCC1143 cells, HCC1143, 3 day, 0.1 uM; read-out: viability Replicate 1

| smiles entry | unit descriptor | viability at 3 day, 0.1 µM |
| --- | --- | --- |
| COc1cc(OC)cc(-c2noc(N3CCN(C)C4(CCN(c5ccnc(C)c5)CC4)C3)n2)c1 | % | 95.6 |

* * *

- assay procedure: CelltiterGlo viability cell assay
- Type: cell-based
- measurement context: human, SKMM2 cells (multiple myeloma line), SKMM2, 3 day, 30 uM; read-out: viability Replicate 1
endpoint: viability at 3 day, 30 µM (%)

| compound | endpoint | unit descriptor | numeric value |
| --- | --- | --- | --- |
| COc1cc(OC)cc(-c2noc(N3CCN(C)C4(CCN(c5ccnc(C)c5)CC4)C3)n2)c1 [MRK-740] | viability at 3 day, 30 µM | % | 70.4 |

* * *

- assay procedure: CelltiterGlo viability cell assay
- Assay type: cell-based
- measurement context: human, MDA-MB-436 breast cancer cells, MDA MB436, 3 day, 9.5 uM; read-out: viability Average

| compound | viability at 3 day, 9.5 µM |
| --- | --- |
| COc1cc(OC)cc(-c2noc(N3CCN(C)C4(CCN(c5ccnc(C)c5)CC4)C3)n2)c1 [MRK-740] | 94.9% |

* * *

- assay procedure: CelltiterGlo viability cell assay
- Type: cell-based
- measurement context: human, HCC1806 breast cancer cells, HCC1806, 6 day, 9.5 uM; read-out: viability Average

| smiles entry | viability at 6 day, 9.5 µM (%) |
| --- | --- |
| COc1cc(OC)cc(-c2noc(N3CCN(C)C4(CCN(c5ccnc(C)c5)CC4)C3)n2)c1 | 24.9 |

* * *

- assay procedure: CelltiterGlo viability cell assay
- Format: cell-based
- measurement context: human, HCC1806 breast cancer cells, HCC1806, 6 day, 0.01 uM; read-out: viability Average

| smiles entry | unit descriptor | viability at 6 day, 0.01 µM |
| --- | --- | --- |
| COc1cc(OC)cc(-c2noc(N3CCN(C)C4(CCN(c5ccnc(C)c5)CC4)C3)n2)c1 | % | 102 |

* * *

- assay procedure: CelltiterGlo viability cell assay
- Assay type: cell-based
- measurement context: human, CAL851 breast cancer cells, CAL851, 6 day, 0.01 uM; read-out: viability Replicate 2

| molecule | viability at 6 day, 0.01 µM / % |
| --- | --- |
| COc1cc(OC)cc(-c2noc(N3CCN(C)C4(CCN(c5ccnc(C)c5)CC4)C3)n2)c1 [MRK-740] | 118 |

* * *

- target or test system: PRDM7 (Homo sapiens, UniProt Q9NQW5)
- Sequence (Q9NQW5 1-492): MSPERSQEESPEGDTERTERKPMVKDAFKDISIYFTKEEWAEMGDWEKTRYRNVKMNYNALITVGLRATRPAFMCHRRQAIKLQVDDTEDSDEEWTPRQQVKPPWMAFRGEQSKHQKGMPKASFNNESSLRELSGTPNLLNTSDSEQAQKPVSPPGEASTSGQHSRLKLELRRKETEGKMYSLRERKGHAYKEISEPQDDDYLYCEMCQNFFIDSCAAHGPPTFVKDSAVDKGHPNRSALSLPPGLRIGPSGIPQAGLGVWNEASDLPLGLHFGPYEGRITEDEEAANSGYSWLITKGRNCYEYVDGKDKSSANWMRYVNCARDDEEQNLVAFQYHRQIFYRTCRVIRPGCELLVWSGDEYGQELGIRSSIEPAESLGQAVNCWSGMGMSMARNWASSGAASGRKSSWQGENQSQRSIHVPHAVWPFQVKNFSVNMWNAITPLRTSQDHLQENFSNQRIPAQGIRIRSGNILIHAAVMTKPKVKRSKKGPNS
endpoint: IC50 (µM)

| compound | endpoint | unit descriptor | numeric value |
| --- | --- | --- | --- |
| COc1cc(OC)cc(-c2noc(N3CCN(C)C4(CCN(c5ccnc(C)c5)CC4)C3)n2)c1 [MRK-740] | IC50 | µM | 45 |

* * *

- assay procedure: CelltiterGlo viability cell assay
- Type: cell-based
- measurement context: human, HCC1143 breast cancer cells, HCC1143, 3 day, 9.5 uM; read-out: viability Replicate 3

| smiles entry | unit descriptor | viability at 3 day, 9.5 µM |
| --- | --- | --- |
| COc1cc(OC)cc(-c2noc(N3CCN(C)C4(CCN(c5ccnc(C)c5)CC4)C3)n2)c1 | % | 72 |
